Overview of reported TGI across a group of compounds:
# Test system: HCT-116 colon
# assayName: NCI tumour cell line growth inhibition, 48 h

The examples below pair each entry with its known result.
>>> measuredresult("CO[C@@H]1C[C@H](OC(N)=O)[C@@H]2C=C[C@@H]3/C=C(C)/C=C/[C@@H](C)[C@H]([C@H](C)[C@H](O)[C@@H](C)NC(C)=O)OC(=O)/C=C/C=C(C)\\C=C\\[C@]3(C)[C@@H]2C1")
"1.25 µM"
>>> measuredresult("COc1cc2c3c(n(CCCNCCNCCN)c(=O)c2cc1OC)-c1cc2c(cc1C3=O)OCO2")
"2.19 µM"
>>> measuredresult("CCNC(=O)N(CC)CN(CC)C(=O)NCC")
"> 100 µM"
>>> measuredresult("CCCCCCCCCCCCCCCC/C(C(=O)OC)=C(/O)C(=O)OCC")
"> 100 µM"
>>> measuredresult("Cc1ccc(O)c(C(c2ccc(C(c3cc(C)ccc3O)c3cc(C)ccc3O)cc2)c2cc(C)ccc2O)c1")
"3.04 µM"
>>> measuredresult("COc1cc(/C=C/c2cc(/C=C/c3ccc(O)c(OC)c3)n(-c3c(Cl)cccc3Cl)c(=O)n2)ccc1O")
"5.25 µM"
>>> measuredresult("CCn1c(=O)c(Oc2ccc(F)cc2F)cc2cnc(NC3CCOCC3)nc21")
"> 25 µM"
>>> measuredresult("CCOC(=O)C(/C=N\\C(=S)Nc1c(CC)cccc1C(C)(C)C)=C(/O)c1ccccc1")
"> 100 µM"
>>> measuredresult("COC(=O)/C(=N\\NC(=O)c1ccccc1O)C(C#N)c1ccccc1 (centres undefined)")
"> 50 µM"
>>> measuredresult("CC(C)(C)OC(=O)NCCc1ccc(N)cc1")
"> 100 µM"

Look up TGI with HCT-116 colon for this compound: O=C1C(Cl)C(c2cc3cc(Br)ccc3nc2Cl)N1c1ccc(F)c(Cl)c1 (centres undefined) 18.9 µM

// same read-out, input: `CCOC(=O)N1C/C(=C/c2ccc(Cl)cc2)C(=O)/C(=C/c2ccc(Cl)cc2)C1` 2.72 µM

And what about the compound `C#CCn1cnc2cnc(Nc3cccc(NC(=O)CCl)c3)nc21` ? > 62.5 µM

Next entry: `O=C(Nc1ccc(OCc2nnc(-c3ccc(Cl)cc3)o2)c(F)c1)c1ccc(Cl)c(C(F)(F)F)c1` > 50 µM

Now consider `CC/C=C/C[C@H](O[Si](C)(C)C(C)(C)C)[C@H]1C[C@H]2O[C@H]([C@@H](O)C#C[Si](C)(C)C)C[C@H]2O1` . 24.5 µM

For `CC(C)OC(=O)C1=C2c3ncccc3C(=O)N2[C@@H](Cl)[C@H](Cl)[C@H]1Cl` then? > 100 µM

And then `N#Cc1ccccc1NC(=O)/C(=N\Nc1ccc([N+](=O)[O-])cc1)C1C(=O)NC(=O)NC1=O` , what is it? > 100 µM

Another compound to look at: `C1CSC(Sc2nc(SC3=NCCS3)nc(SC3=NCCS3)n2)=N1` > 100 µM

Please do the same for COc1cc(OC)c2c(c1-c1ccc(C)cc1)CC(C)N(Cc1ccccc1)[C@H]2C (some centres undefined) as well. > 100 µM

====

# Test system: SNB-75 CNS
# assayName: NCI tumour cell line growth inhibition, 48 h
propertyName: TGI (µM)
All answers are understood in µM, so give the number only.

Worked cases, answers included:
>>> measuredresult("Cc1cnc(-n2c(C)nc3cc(Cl)ccc3c2=O)s1")
70.4
>>> measuredresult("O/N=C1/C(=C/c2ccc(Cl)c(Cl)c2)CCCC1C(NO)c1ccc(Cl)c(Cl)c1 (configuration not stated)")
31.1
>>> measuredresult("NCCCOc1cc2ccccc2cc1C(=O)NCCOc1nc2ccccc2cc1C(=O)Nc1ccc(Cl)cc1O")
2.3

Item `Nc1nonc1C(=Nc1ccc(F)c(Cl)c1)NO` with SNB-75 CNS - TGI? 76.5

Thanks! And `Cc1cc(=O)oc2cc(OCc3nc4ccccc4c(=O)n3-c3ccccc3)ccc12` ? 46.7

====

# Tested on: SNB-19 CNS
# assayName: NCI tumour cell line growth inhibition, 48 h
propertyName: TGI

Quick one: TGI of `COc1cc2c(cc1I)-c1c(cc(OC)c(OC)c1OC)CC[C@@H]2NC(C)=O` ? > 41 µM

Proceed to `O=C(CSc1nc2ccccc2c2ccccc12)c1ccccc1` > 100 µM

Same lookup for `C=CCN1CCN([C@H](c2ccc(C(=O)N(CC)CC)cc2)c2cccc(OC)c2)CC1` , please. > 25 µM

// query: `COc1cccc2c1N[S@](=O)S2` > 100 µM

// query: O/N=C1/C(=C/c2ccc(Cl)c(Cl)c2)CCCC1C(NO)c1ccc(Cl)c(Cl)c1 (stereo unspecified) 33.1 µM

Another compound to check: `CC1=NC(C)(C)[N+]([O-])=C1` > 10 µM

Again, but for OC1c2ccccc2CCC1C(O)(C(F)(F)F)C(F)(F)F (stereo unspecified) > 100 µM

Here is the next compound: `COc1cc2ccnc(C=O)c2cc1OC` > 100 µM

Param item: `c1ccc2c(c1)SC1=C(SC(=C3SC4=C(S3)Sc3ccccc3S4)S1)S2` > 100 µM

Subsequent entry: `O=C1C(c2c(O)[nH]c3ccc([N+](=O)[O-])cc23)=Nc2ccccc21` > 100 µM

Please answer likewise for `COc1ccc(CC(C)=C(c2ccc(OCCN3CCCCCC3)cc2)c2ccc(OCCN3CCCCCC3)cc2)cc1` 0.817 µM

====

# System: SNB-19 CNS
# assayName: NCI tumour cell line growth inhibition, 48 h
Residues, ends and D or L forms follow the SMILES beside them. *: point of attachment. Boc = CC(C)(C)OC(=O)*; OBn = c1ccc(CO*)cc1
propertyName: TGI

Take a look at these entries with their results.
>>> measuredresult("O=C(CSc1nnc(SCC(=O)NN=C2CCCCC2)s1)NN=C1CCCCC1")
"> 100 µM"
>>> measuredresult("CC(=O)Oc1c(-c2ccccc2)oc2ccccc12")
"11.6 µM"
>>> measuredresult("CCO/C=N/C1=C(C#N)C(c2ccc(OC)cc2)c2sc3c(F)cccc3c2O1 (stereo not drawn)")
"> 100 µM"

State its TGI on SNB-19 CNS: O=C1OC(O)c2cc3c(cc21)OCO3 (stereo not drawn) > 100 µM

CC(C)CC(NC(=O)OC(C)(C)C)C(=O)NC(CC(=O)OCc1ccccc1)C(N)=O (stereo not drawn) (Boc-Leu-Asp(OBn)-NH2; configuration not given here) , same question. > 100 µM

Another: `O=C1Nc2cc(Cl)ccc2C(=O)N2CCC[C@@H]12` > 100 µM

Let us now turn to `CC(=O)O[C@H]1C(=O)[C@@]2(C)[C@H]([C@H](OC(=O)c3ccccc3)[C@]3(O)C[C@H](OC(=O)[C@H](O)[C@@H](NC(=O)c4ccccc4)c4ccccc4C)C(C)=C1C3(C)C)[C@]1(OC(C)=O)CO[C@@H]1C[C@@H]2O` > 25 µM

Now the compound `Nc1nc(-c2ccco2)cc(-c2ccco2)n1` > 100 µM

====

# System: A549 NSCLC
# assayName: NCI tumour cell line growth inhibition, 48 h
Entries and their GI50 values follow.

Known GI50 results, listed for orientation:
>>> measuredresult("CCC[CH2][Sn]1([CH2]CCC)[O]C(=O)c2cccc(C)c2[O]1")
"1.46 µM"
>>> measuredresult("CC1(C)CN(c2cc(C(F)(F)F)cc3cncn23)CCC12NC(=O)NC2=O (stereo not drawn)")
"38 µM"

May I ask what GI50 has been recorded for CNC(=O)NCC1OC(n2cnc3c(NC(=O)Nc4ccccc4)ncnc32)C(O[Si](C)(C)C(C)(C)C)C1CC(=O)N(C)OC (stereo not drawn) ? 5.88 µM

====

# Tested on: UACC-62 melanoma
# assayName: NCI tumour cell line growth inhibition, 48 h
// reported TGI for each item listed
The response must be a number in µM with no trailing unit.

Some solved entries appear below for comparison.
>>> measuredresult("Cc1ccc(O)c(C(c2ccc(C(c3cc(C)ccc3O)c3cc(C)ccc3O)cc2)c2cc(C)ccc2O)c1")
3.15
>>> measuredresult("O=C(NN1C(=O)C(Cl)C1c1ccc(O)cc1)c1ccccc1O (stereo unspecified)")
32.3
>>> measuredresult("O=C(c1ccc(Cl)cc1)c1no[n+]([O-])c1C(=O)c1ccc(Cl)cc1")
27.3
>>> measuredresult("CN(C)CCCNC(=O)c1cc2/c(=C\\c3ccc(N(C)C)cc3)c3ccccc3n2[n+]1C")
34

Lab note: next compound to report on.
Which TGI is reported with UACC-62 melanoma for this entry: `O=c1cc(-c2ccccc2)c2ccc(O)c(CN(CCCl)CCCl)c2o1` ? 51.6

====

TGI by entry:
# Tested on: SR leukemia
# assayName: NCI tumour cell line growth inhibition, 48 h

Please review the following examples before continuing.
>>> measuredresult("C=CCSc1ncnc2c1ncn2C1OC(CO)C(O)C1O (stereo not drawn)")
"> 100 µM"
>>> measuredresult("CC(=O)NCCC1CNc2ccccc21 (stereo not drawn)")
"> 100 µM"
>>> measuredresult("CC(=O)NS(=O)(=O)c1ccc(-n2nc(-c3ccc(Cl)cc3)cc2-c2cc(O)ccc2O)cc1")
"> 100 µM"
>>> measuredresult("Clc1ccc2c(c1)C(Br)c1cc(Cl)cc(Cl)c1-2 (stereo not drawn)")
"> 100 µM"
>>> measuredresult("COc1cccc(/C=N/[N-]C(=O)c2ccncc2)c1[O-].[Ni+2].[OH3+]")
"> 100 µM"

// TGI lookup, key: `c1ccc2cc(C[n+]3ccn(CCCCCCCCCCCCn4cc[n+](Cc5ccc6ccccc6c5)c4)c3)ccc2c1` 1.67 µM

One more compound: `CCn1cc(C(=O)O)c(=O)c2cc(F)c(N3CCN(CN4C(=O)/C(=N\c5ncc(Cc6cc(OC)c(OC)c(OC)c6)c(N)n5)c5cc(Cl)ccc54)CC3)cc21` > 100 µM

Consider next the compound COc1cc2c(cc1OC)C1[C@@H](c3ccccc3)OCN1CC2 (stereo partly drawn) in the same way. > 100 µM

// repeat for `CN(C)CCCNC(=O)c1cc2/c(=C\c3ccc(N(C)C)cc3)c3ccccc3n2[n+]1C` and report 54.1 µM

And what about the compound `COc1cc2ccnc(C=O)c2cc1OC` ? > 100 µM

Consider next the compound `O=c1c(-c2ccccc2)c2n(c3ccccc13)CCN2` in the same way. > 100 µM

Param item: `ClC(Cl)(Cl)C(N1CCN(c2ccccc2)CC1)N1CCN(c2ccccc2)CC1` > 100 µM

Could you do the same for `CCOC(=O)c1csc(NC(=O)CN(C)C)n1` , please? > 100 µM

Another compound: `c1cc2c(s1)SSSSS2` 22.8 µM
